System: Escherichia coli TOP10;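 note: peptides expressed intracellularly from a pBAD plasmid library in pooled LB shake-flask culture, induced with 0.3% L-arabinose, DNA abundance read by NGS, three biological replicates, DESeq2 with apeglm shrinkage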
assay.comment: shrunken log2 fold change of peptide-encoding DNA abundance (4.5 h post-induction vs induction); higher = less antimicrobial activity (less host growth inhibition)
experimental.parameters: time post-induction: 4.5 h; library: site-saturation at positions 5, 18, 19, 20
Consider the reported shrunken log2 fold change of an entry and match it to a band in interval 1 (below -0.2), interval 2 (-0.2 to below 0.1), interval 3 (0.1 or more)

INSERT INTO assay_data (monomer_sequence, class) VALUES
  ('RRIRFRPPRLPRPRPRPTYKPRP', 'interval 1'),
  ('RRIRPRPPRLPRPRPRPICEPRP', 'interval 3'),
  ('RRIRRRPPRLPRPRPRPESQPRP', 'interval 3'),
  ('RRIRLRPPRLPRPRPRPCRSPRP', 'interval 2'),
  ('RRIRCRPPRLPRPRPRPYTHPRP', 'interval 1'),
  ('RRIRSRPPRLPRPRPRPVPVPRP', 'interval 3'),
  ('RRIRSRPPRLPRPRPRPRLRPRP', 'interval 3'),
  ('RRIRMRPPRLPRPRPRPTRCPRP', 'interval 3'),
  ('RRIRCRPPRLPRPRPRPRHQPRP', 'interval 3'),
  ('RRIRHRPPRLPRPRPRPHAQPRP', 'interval 2'),
  ('RRIRCRPPRLPRPRPRPACSPRP', 'interval 2'),
  ('RRIRWRPPRLPRPRPRPNGIPRP', 'interval 2'),
  ('RRIRPRPPRLPRPRPRPYTKPRP', 'interval 2'),
  ('RRIRIRPPRLPRPRPRPQAKPRP', 'interval 3'),
  ('RRIRGRPPRLPRPRPRPVNIPRP', 'interval 3'),
  ('RRIRVRPPRLPRPRPRPNNQPRP', 'interval 1'),
  ('RRIRWRPPRLPRPRPRPSSVPRP', 'interval 3'),
  ('RRIRARPPRLPRPRPRPYAKPRP', 'interval 3'),
  ('RRIRARPPRLPRPRPRPLPPPRP', 'interval 3'),
  ('RRIRARPPRLPRPRPRPWGGPRP', 'interval 3'),
  ('RRIRTRPPRLPRPRPRPHSGPRP', 'interval 2'),
  ('RRIRCRPPRLPRPRPRPCRLPRP', 'interval 1'),
  ('RRIRDRPPRLPRPRPRPCHYPRP', 'interval 1'),
  ('RRIRPRPPRLPRPRPRPVFEPRP', 'interval 3'),
  ('RRIRFRPPRLPRPRPRPKIIPRP', 'interval 1'),
  ('RRIRMRPPRLPRPRPRPKLAPRP', 'interval 3'),
  ('RRIRVRPPRLPRPRPRPWEGPRP', 'interval 2'),
  ('RRIRCRPPRLPRPRPRPPYLPRP', 'interval 1'),
  ('RRIRFRPPRLPRPRPRPNRNPRP', 'interval 1'),
  ('RRIRDRPPRLPRPRPRPISRPRP', 'interval 2'),
  ('RRIRCRPPRLPRPRPRPWHYPRP', 'interval 1'),
  ('RRIRIRPPRLPRPRPRPNGYPRP', 'interval 2'),
  ('RRIRVRPPRLPRPRPRPYFRPRP', 'interval 2'),
  ('RRIRERPPRLPRPRPRPKCNPRP', 'interval 2'),
  ('RRIRHRPPRLPRPRPRPLMTPRP', 'interval 2'),
  ('RRIRARPPRLPRPRPRPEKDPRP', 'interval 3'),
  ('RRIRIRPPRLPRPRPRPPAGPRP', 'interval 3'),
  ('RRIRARPPRLPRPRPRPYNEPRP', 'interval 1'),
  ('RRIRKRPPRLPRPRPRPKCYPRP', 'interval 2'),
  ('RRIRSRPPRLPRPRPRPSQCPRP', 'interval 1'),
  ('RRIRIRPPRLPRPRPRPFFIPRP', 'interval 1'),
  ('RRIRCRPPRLPRPRPRPVFVPRP', 'interval 2'),
  ('RRIRNRPPRLPRPRPRPLRIPRP', 'interval 2'),
  ('RRIRIRPPRLPRPRPRPIVYPRP', 'interval 1'),
  ('RRIRSRPPRLPRPRPRPWQCPRP', 'interval 2'),
  ('RRIRHRPPRLPRPRPRPYDDPRP', 'interval 2'),
  ('RRIRWRPPRLPRPRPRPFRSPRP', 'interval 2'),
  ('RRIRKRPPRLPRPRPRPGRRPRP', 'interval 3'),
  ('RRIRSRPPRLPRPRPRPSHPPRP', 'interval 1');
